- subject-of-test: human δ opioid receptor (human, UniProt P41143 1-372)
- Sequence (P41143 whole entry, stated change not applied): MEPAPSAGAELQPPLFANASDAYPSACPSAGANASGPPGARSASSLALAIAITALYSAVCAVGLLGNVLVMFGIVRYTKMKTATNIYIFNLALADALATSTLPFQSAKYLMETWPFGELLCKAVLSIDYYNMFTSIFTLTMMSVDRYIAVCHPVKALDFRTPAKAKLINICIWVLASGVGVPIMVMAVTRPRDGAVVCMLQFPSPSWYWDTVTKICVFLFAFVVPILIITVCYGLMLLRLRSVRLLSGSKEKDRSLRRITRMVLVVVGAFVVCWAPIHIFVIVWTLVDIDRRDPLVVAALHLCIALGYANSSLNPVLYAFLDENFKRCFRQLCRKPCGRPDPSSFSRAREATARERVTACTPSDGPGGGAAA
- assay-comment: cell-based or functional assay
Square brackets hold non-standard residues; d marks the D form. Ends that are not written are not given here. * marks the point of attachment. NHBn(CF3)2 = C-terminal amide NH-Bn(CF3)2, a benzyl group carrying two CF3; NMeBn(CF3)2 = C-terminal N-methyl bis(trifluoromethyl)benzyl amide; NH(3,5-(CF3)2-benzyl) = FC(F)(F)c1cc(CN*)cc(C(F)(F)F)c1; OBzl(3,5-(CF3)2) = FC(F)(F)c1cc(CO*)cc(C(F)(F)F)c1; OBn(OMe)2 = C-terminal OBn(OMe)2 ester; Dmt = Cc1cc(O)cc(C)c1C[C@H](N)C(=O)O; NMe(benzyl) = CN(Cc1ccccc1)*; OBn = c1ccc(CO*)cc1
property-label: GTP binding hDOR EC50 (nM)
Numbers only, in nM.

// worked examples, GTP binding hDOR EC50 included
YAGFXPLW (D-Ala at 2; Nle (norleucine) at 5 (X); C-terminal O-3,5-Bn(CF3)2 ester) [TyrDAlaGlyPheNleProLeuTrpOBn(CF3)2 (TY018)]    4
Y[dA]GFLPLW-{OBzl(3,5-(CF3)2)} [TyrDAlaGlyPheLeuProLeuTrpOBn(CF3)2 (TY004)]    9.6
Y[dA]GFFPLW-{NHBn(CF3)2} [TyrDAlaGlyPhePheProLeuTrpNHBn(CF3)2 (TY015)]    81.4
Y[dA]GFMPLW-{OBn(OMe)2} [TyrDAlaGlyPheMetProLeuTrpOBn(OMe)2 (TY030)]    0.8
Y[dA]GFMPLW-{OBzl(3,5-(CF3)2)} [TyrDAlaGlyPheMetProLeuTrpOBn(CF3)2 (TY005)]    2.9

Quick one: give me GTP binding hDOR EC50 for each item below, same order please.
1. [Dmt][dA]GFMPLW-{OBzl(3,5-(CF3)2)} [DmtDAlaGlyPheMetProLeuTrpOBn(CF3)2 (TY033)]
2. Y[dA]GFMPLW-{NMeBn(CF3)2} [TyrDAlaGlyPheMetProLeuTrpNMeBn(CF3)2 (TY028)]
3. YXGFXPLW (D-Pen (D-penicillamine) at 2 (X); Pen (L-penicillamine) at 5 (X); disulfide 2-5 (cyclic); C-terminal NH-Bn(CF3)2 amide) [Tyr[DPenGlyPhePen]ProLeuTrpNHBn(CF3)2 (TY046)]

Result ::
1. 0.73
2. 12.9
3. 17.2

Record GTP binding hDOR EC50 per entry; entries follow.
1. Y[dA]GF[dF]PLW-{OBzl(3,5-(CF3)2)} [TyrDAlaGlyPheDPheProLeuTrpOBn(CF3)2 (TY007)]
2. [Dmt][dA]GFMPLW-{NH(3,5-(CF3)2-benzyl)} [DmtDAlaGlyPheMetProLeuTrpNHBn(CF3)2 (TY032)]
3. Y[dA]GFMPLW-OBn [TyrDAlaGlyPheMetProLeuTrpOBn (TY029)]

Result ::
1. 16.7
2. 1.2
3. 3.4

# batch: return GTP binding hDOR EC50 for each of the 3 binders below
1. Y[dA]GFFPLW-{OBzl(3,5-(CF3)2)} [TyrDAlaGlyPhePheProLeuTrpOBn(CF3)2 (TY003)]
2. Y[dA]GFGPLW-{OBzl(3,5-(CF3)2)} [TyrDAlaGlyPheGlyProLeuTrpOBn(CF3)2 (TY006)]
3. Y[dA]GFMPLW-{NMe(benzyl)} [TyrDAlaGlyPheMetProLeuTrpNMeBn (TY026)]

Result ::
[20.8, 50.2, 8.9]
